The entries below are paired with their reported IC50.
assayedTarget: Platelet-derived growth factor receptor (Homo sapiens, UniProt P09619+P16234)
assaySummary: Concentration required for 50% inhibition against autophosphorylation of Platelet-derived growth factor receptor beta in intact cells using a two site ELISA
Dear colleague, please return just the value in nM, with no unit written.

COc1cc2ncnc(N3CCN(C(=S)NCCc4ccc(Cl)cc4)CC3)c2cc1OC    1090
COc1cc2ncnc(N3CCN(C(=S)NCc4ccc(Br)cc4)CC3)c2cc1OC    30
COc1cc2ncnc(N3CCN(C(=O)Nc4ccc(Oc5ccccc5)cc4)C(C)C3)c2cc1OC (stereo not given)    80
COc1cc2ncnc(N3CCN(C(=O)NCc4ccc5c(c4)OCO5)CC3)c2cc1OC    1870
COc1cc2ncnc(N3CCN(C(=S)Nc4ccc(Cl)cc4)CC3)c2cc1OC    790

Note: attention shifts to another entry.
Annotate the compound `COc1cc2ncnc(N3CCN(C(=S)Nc4cncc(Cl)c4)CC3)c2cc1OC` with its measured IC50.
550

###

assayedTarget: Proto-oncogene tyrosine-protein kinase Src (Homo sapiens, UniProt P12931)
Sequence (P12931 2-536 limits assumed): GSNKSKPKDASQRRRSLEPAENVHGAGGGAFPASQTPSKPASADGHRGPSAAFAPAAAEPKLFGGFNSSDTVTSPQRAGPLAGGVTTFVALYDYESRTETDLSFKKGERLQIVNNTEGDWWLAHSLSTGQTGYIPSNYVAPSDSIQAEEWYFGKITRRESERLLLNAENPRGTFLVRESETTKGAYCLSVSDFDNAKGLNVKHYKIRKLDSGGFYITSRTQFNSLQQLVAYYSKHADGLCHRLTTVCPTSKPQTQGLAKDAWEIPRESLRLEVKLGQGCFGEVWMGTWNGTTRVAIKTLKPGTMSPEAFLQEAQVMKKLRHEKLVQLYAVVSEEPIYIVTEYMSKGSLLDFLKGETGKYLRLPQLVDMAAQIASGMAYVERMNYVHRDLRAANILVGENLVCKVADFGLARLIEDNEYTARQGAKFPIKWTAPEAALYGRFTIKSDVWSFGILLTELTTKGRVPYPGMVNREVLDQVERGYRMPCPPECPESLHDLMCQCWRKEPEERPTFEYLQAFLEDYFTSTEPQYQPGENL
reportedProperty: IC50

In one line, give reported IC50 of the entry `COc1cc2ncnc(N3CCN(/C(S)=N\Cc4ccccc4)CC3)c2cc1OC` .
> 30 µM

###

assayedTarget: Platelet-derived growth factor receptor (Homo sapiens, UniProt P09619+P16234)
assaySummary: Concentration required for 50% inhibition against autophosphorylation of Platelet-derived growth factor receptor beta in intact cells using a two site ELISA
Entries annotated with measured IC50
Record the value in µM, omitting the unit from your answer.

COc1cc2ncnc(N3CCN(C(=S)N[C@@H](C)c4ccccc4)CC3)c2cc1OC    0.54
COc1cc2ncnc(N3CCN(C(=S)NCCc4cccnc4)CC3)c2cc1OC    20.1

// fetch IC50 given entry `COc1cc2ncnc(N3CCN(C(=NC#N)NCc4cccc(Cl)c4)CC3)c2cc1OC`
23.5

Given `COc1cc2ncnc(N3CCN(C(=NC#N)NCc4ccc5c(c4)OCO5)CC3)c2cc1OC` , respond with its IC50.
0.19

Please give the documented IC50 of `COc1cc2ncnc(N3CCN(C(=O)NCc4ccc(C(C)C)cc4)CC3)c2cc1OC`
0.55

Hello, please tell me recorded IC50 for this one: `COc1cc2ncnc(N3CCN(C(=S)Nc4cccnc4)CC3)c2cc1OC`
0.41

Item `COc1cc2ncnc(N3CCN(C(=S)NCc4ccco4)CC3)c2cc1OC` : provide IC50
0.33

###

assaySummary: Plasma concentration was determined after 8 hr at a dose 30 mg/kg administered orally to rat-7
Assay type: ADME, organism-based
Parameters: dose 30 mg/kg, route oral
testContext: po
reportedProperty: concentration at 8 h
Mention the unit after the number when you answer.

Determine from records and report concentration at 8 h for `COc1ccc(CNC(=S)N2CCN(c3ncnc4cc(OC)c(OC)cc34)CC2)cc1`
400 ng/mL

###

assaySummary: Plasma concentration was determined after 8 hr at a dose 30 mg/kg administered orally to rat-4
Type: ADME, organism-based
Design: dose 30 mg/kg, route oral
testContext: po
reportedProperty: concentration at 8 h (ng/mL)
The answer is to be given in ng/mL; state only the numeric part.

Identify measured concentration at 8 h associated with `COc1cc2ncnc(N3CCN(/C(S)=N\Cc4ccccc4)CC3)c2cc1OC`
900

###

assaySummary: Plasma concentration was determined after 1 hr at a dose 30 mg/kg administered orally to rat-2
Type: ADME, organism-based
Set-up: dose 30 mg/kg, route oral
testContext: po
reportedProperty: concentration at 1 h (ng/mL)
Give the value, in units of ng/mL, as a plain number.

Consider the molecule `COc1ccc(CNC(=O)N2CCN(c3ncnc4cc(OC)c(OC)cc34)CC2)cc1` and give its recorded concentration at 1 h.
11600

###

assaySummary: Plasma concentration was determined after 1 hr at a dose 30 mg/kg administered orally to rat-7
Type: ADME, organism-based
Design: dose 30 mg/kg, route oral
testContext: po
reportedProperty: concentration at 1 h (ng/mL)
Reply with just the number (in ng/mL).

Tell us which concentration at 1 h value is on record for `COc1ccc(CNC(=S)N2CCN(c3ncnc4cc(OC)c(OC)cc34)CC2)cc1`
2300

###

Each entry below carries its recorded pIC50.
assayedTarget: Mitogen-activated protein kinase 8 (Homo sapiens, UniProt P45983)
Sequence (P45983 whole entry): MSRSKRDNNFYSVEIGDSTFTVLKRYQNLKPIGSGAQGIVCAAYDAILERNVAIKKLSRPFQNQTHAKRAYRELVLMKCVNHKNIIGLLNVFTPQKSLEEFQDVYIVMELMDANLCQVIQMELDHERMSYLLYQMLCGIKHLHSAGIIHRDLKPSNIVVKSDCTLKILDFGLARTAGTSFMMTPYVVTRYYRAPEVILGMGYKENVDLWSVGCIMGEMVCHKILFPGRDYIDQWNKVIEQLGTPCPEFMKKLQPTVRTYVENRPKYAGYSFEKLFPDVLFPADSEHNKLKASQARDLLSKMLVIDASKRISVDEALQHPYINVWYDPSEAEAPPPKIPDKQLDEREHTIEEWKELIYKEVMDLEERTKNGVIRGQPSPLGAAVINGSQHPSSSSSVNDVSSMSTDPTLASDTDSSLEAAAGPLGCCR
assaySummary: Inhibition of c-Jun N-terminal kinase (Jnk)
pIC50: −log10 of the molar value.

COc1cc2ncnc(N3CCN(/C(S)=N\Cc4ccc5c(c4)OCO5)CC3)c2cc1OC    < 4.52

Return pIC50 (reported value) for this compound: `COc1cc2ncnc(N3CCN(/C(S)=N\Cc4ccccc4)CC3)c2cc1OC`
< 4.52

###

assayedTarget: Receptor-type tyrosine-protein kinase FLT3 (Homo sapiens)
Sequence (P36888 whole entry): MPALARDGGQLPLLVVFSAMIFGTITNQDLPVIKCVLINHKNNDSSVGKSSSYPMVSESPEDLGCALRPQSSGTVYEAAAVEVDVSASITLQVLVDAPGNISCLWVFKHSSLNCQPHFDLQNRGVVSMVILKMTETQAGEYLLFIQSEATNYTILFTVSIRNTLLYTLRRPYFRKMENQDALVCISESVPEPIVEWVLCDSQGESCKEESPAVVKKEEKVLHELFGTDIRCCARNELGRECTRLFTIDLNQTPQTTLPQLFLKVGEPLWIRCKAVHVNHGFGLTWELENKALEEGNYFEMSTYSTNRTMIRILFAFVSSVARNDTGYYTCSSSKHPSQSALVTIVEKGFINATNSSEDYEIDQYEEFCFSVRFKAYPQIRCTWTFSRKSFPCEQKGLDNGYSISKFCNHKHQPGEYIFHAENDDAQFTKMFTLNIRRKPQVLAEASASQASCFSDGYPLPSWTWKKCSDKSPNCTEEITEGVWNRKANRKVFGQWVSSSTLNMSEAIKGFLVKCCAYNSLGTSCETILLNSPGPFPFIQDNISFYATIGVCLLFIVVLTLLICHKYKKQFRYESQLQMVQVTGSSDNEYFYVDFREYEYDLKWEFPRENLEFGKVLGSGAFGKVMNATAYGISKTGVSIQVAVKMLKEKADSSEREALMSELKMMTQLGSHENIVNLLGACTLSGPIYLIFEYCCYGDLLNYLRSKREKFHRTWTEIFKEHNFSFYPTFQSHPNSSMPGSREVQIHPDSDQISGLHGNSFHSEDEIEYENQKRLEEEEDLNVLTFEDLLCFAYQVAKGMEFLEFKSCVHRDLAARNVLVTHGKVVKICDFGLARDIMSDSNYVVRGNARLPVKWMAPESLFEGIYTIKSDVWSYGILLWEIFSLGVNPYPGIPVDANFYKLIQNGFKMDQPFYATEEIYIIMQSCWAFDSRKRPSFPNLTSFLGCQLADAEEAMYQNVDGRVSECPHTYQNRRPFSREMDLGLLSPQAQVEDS
reportedProperty: pIC50
The value called pIC50 is obtained by taking minus log10 of the concentration in mol/L.

Answer with the recorded pIC50 of `COc1cc2ncnc(N3CCN(/C(S)=N\Cc4ccc5c(c4)OCO5)CC3)c2cc1OC` only.
4.83

###

assaySummary: Plasma concentration was determined after 8 hr at a dose 30 mg/kg administered orally to rat-10
Assay type: ADME, organism-based
Design: dose 30 mg/kg, route oral
testContext: po
reportedProperty: concentration at 8 h
Answer with the number, then the unit.

Output concentration at 8 h of `COc1cc2ncnc(N3CCN(/C(S)=N\Cc4ccc5c(c4)OCO5)CC3)c2cc1OC`
3600 ng/mL

###

assaySummary: pharmacokinetic parameter was evaluated after oral administration of 30 mg/kg to rat
Type: ADME, organism-based
Set-up: dose 30 mg/kg, route oral
testContext: in vivo
reportedProperty: half-life (h)
Dear colleague, please return just the value in h, with no unit written.

Some molecules with recorded half-life:
COc1cc2ncnc(N3CCN(/C(S)=N\Cc4ccc5c(c4)OCO5)CC3)c2cc1OC    3.92
COc1cc2ncnc(N3CCN(/C(S)=N\Cc4cccnc4)CC3)c2cc1OC.Cl.Cl    2.11
COc1cc2ncnc(N3CCN(C(=S)NCc4ccco4)CC3)c2cc1OC    3.33

As a next step, examine the molecule that follows.
Entry `COc1cc2ncnc(N3CCN(C(=O)Nc4ccsc4)CC3)c2cc1OC` needs its half-life filled in; supply it.
4.25

###

assaySummary: Plasma concentration was determined after 8 hr at a dose 30 mg/kg administered orally to rat-13
Format: ADME, organism-based
Parameters: dose 30 mg/kg, route oral
testContext: po
reportedProperty: concentration at 8 h

Indicate its recorded concentration at 8 h; the compound in question is `COc1cc2ncnc(N3CCN(/C(S)=N\Cc4cccnc4)CC3)c2cc1OC.Cl.Cl`
< 100 ng/mL

###

assaySummary: Plasma concentration was determined after 8 hr at a dose 30 mg/kg administered orally to rat-15
Assay type: ADME, organism-based
Design: dose 30 mg/kg, route oral
testContext: po
reportedProperty: concentration at 8 h

Look up and report measured concentration at 8 h for this entry: `COc1cc2ncnc(N3CCN(C(=S)NCc4ccco4)CC3)c2cc1OC`
1200 ng/mL
